Answer each item with its documented growth inhibition.
# experiment notes: NCI Yeast Anticancer Drug Screen. Data for the sgs1 mgt1 strain (AID 161);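 note: 0% = growth of cultures given vehicle only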
# test parameters: S. cerevisiae sgs1 mgt1 strain, at 50.0 µM, active compounds read high
This is part of a sample that, as a whole, favours compounds with a hit. Of some 79,000 tested, about 15% had one in any assay.
Please reply with the bare figure in % and do not write the unit itself.

Problem: Name the reported growth inhibition value associated with the compound `O=C(Nc1ccc(Cl)c(Cl)c1)c1ccc(Cl)cc1`
Solution: 7.65

Problem: Name the reported growth inhibition value associated with the compound `N=C(N)c1ccc(C(=N)N)cc1`
Solution: -20.3

Problem: Name the reported growth inhibition value associated with the compound `Cc1ccc(NC(=O)CCC(=O)O)cc1Cl`
Solution: -4.25

Problem: Name the reported growth inhibition value associated with the compound `Clc1cccc(-c2nc3cccc4c3n2Cc2ncccc2-4)c1`
Solution: -42.5

Problem: Name the reported growth inhibition value associated with the compound `Cc1cc(NS(=O)(=O)c2ccc(NC(NC(=O)C(C(F)(F)F)C(F)(F)F)(C(F)(F)F)C(F)(F)F)cc2)no1`
Solution: -24.9

Problem: Name the reported growth inhibition value associated with the compound `O=S(=O)(O)Cc1cccc2ccccc12`
Solution: 11.8

----------
# experiment notes: NCI Yeast Anticancer Drug Screen. Data for the mec2-1 strain (AID 157)
# test parameters: S. cerevisiae mec2-1 strain, at 50.0 µM, active compounds read high
Compounds without any hit were thinned out: in the full panel of roughly 79,000, 15% have a hit.
Answer each item with its documented growth inhibition.
Please reply with the bare figure in % and do not write the unit itself.

Problem: Name the reported growth inhibition value associated with the compound CCOC(=O)C(Cc1cn(C(C)=O)c2ccccc12)P(=O)(OCC)OCC (centres undefined)
Solution: -21.6

Problem: Name the reported growth inhibition value associated with the compound `COc1ccc(C2(C#N)CCCC2)cc1`
Solution: 12.4

Problem: Name the reported growth inhibition value associated with the compound `c1ccc(C(C2=Nc3cccc4cccc(c34)N2)c2ccccc2)cc1`
Solution: -18.4

Problem: Name the reported growth inhibition value associated with the compound `CCCCCCCCCCCCCCCCCCc1c(C)cc(C)cc1C`
Solution: 23.2

----------
# experiment notes: NCI Yeast Anticancer Drug Screen. Data for the cln2 rad14 strain (AID 165);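 note: 0% = growth equal to vehicle treated cultures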
# test parameters: S. cerevisiae cln2 rad14 strain, at 50.0 µM, active compounds read high
About 79,000 compounds went through this panel and 15% of them were active in at least one assay; those are over-represented in the sample as a whole.
Answer each item with its documented growth inhibition.
Please reply with the bare figure in % and do not write the unit itself.

Problem: Name the reported growth inhibition value associated with the compound `CC1=NN2C(c3ccc(Cl)cc3)=CSC2=NC(C)(C)C1`
Solution: 5.8

Problem: Name the reported growth inhibition value associated with the compound `O=C(O)CC[C@H](NC(=O)c1ccc(-n2nc3ccc(O)cc3nc2=O)cc1)C(=O)O`
Solution: 9.95

Problem: Name the reported growth inhibition value associated with the compound `CCOC(=O)c1oc2ccc(OC)c3c2c1CCC3`
Solution: 15.4

Problem: Name the reported growth inhibition value associated with the compound COc1cc2c(cc1OC)C(=O)C(C1CCCCC1)NC2 (configuration not stated)
Solution: 0.45

Problem: Name the reported growth inhibition value associated with the compound `S=c1[nH]c(=S)c2nnn(-c3ccccc3)c2[nH]1`
Solution: -25.9

Problem: Name the reported growth inhibition value associated with the compound `CC(=O)N1CC/C(=C\c2ccccc2)C1=O`
Solution: -6.85

Problem: Name the reported growth inhibition value associated with the compound Cc1cc(Cl)ccc1NC(=O)CCCC(=O)C1CCC/C1=N\NC(=O)CC#N (configuration not stated)
Solution: 8.95
